# MEASUREMENT_PROTOCOL: Bioavailability in dog at 0.67 mg/kg, sublingual
# Type: ADME, organism-based, Canis lupus familiaris
# TEST_SETTINGS: in vivo
QUANTITY: bioavailability
State the value with its unit after it.

For the compound "C[C@@H]1CN(C(=O)[C@@H]2CN(C(C)(C)C)C[C@H]2c2ccc(F)cc2F)C[C@H](C)[C@@]1(O)c1ccccc1.Cl" , what bioavailability is on record? 26%

----------
# MEASUREMENT_PROTOCOL: Bioavailability in dog at 0.14 mg/kg, intranasal
# Assay type: ADME, organism-based, Canis lupus familiaris
# TEST_SETTINGS: in vivo, inhaled or intranasal
QUANTITY: bioavailability

For the molecule "C[C@@H]1CN(C(=O)[C@@H]2CN(C(C)(C)C)C[C@H]2c2ccc(F)cc2F)C[C@H](C)[C@@]1(O)c1ccccc1.Cl" , what bioavailability is on record? 24%
